Value source: patent US5015661A

# targetUnderTest: Δ^5 -lipoxygenase from rat basophilic leukemia (RBL-1) cells (Rattus norvegicus)
# Construct: endogenous in cells; 113,000×g supernatant (cytosolic fraction)
# experimentalDetails: In vitro test for Δ^5 -lipoxygenase inhibitors (5-LO), RBL-1 cell enzyme, 5-HETE radioimmunoassay
# experimentalSetup: RBL-1 5-LO; 10 min preincubation; 8.25 μM arachidonic acid, 10 min at 37° C.; 5-HETE formation; read-out: 5-LO IC-50
measuredParameter: IC50 (nM)

Record excerpt, results attached:
compound="COc1ccc(CCC2(C)CCc3c(C)c(O)c(C)c(C)c3O2)cc1OC(C)=O (racemic) [Example 60]" quantitativereadout=56
compound="Cc1c(C)c2c(c(C)c1O)CCC(C)(C#Cc1ccccc1)O2 (racemic) [Example 1]" quantitativereadout=40
compound="Cc1c(C)c2c(c(C)c1O)CCC(C)(c1cc3ncccc3o1)O2 (racemic) [Example 52]" quantitativereadout=18

a: Cc1c(C)c2c(c(C)c1O)CCC(C)(CCc1ccc(-c3cccnc3)cc1)O2 (racemic) [Example 64]
b: Cc1c(C)c2c(c(C)c1O)CCC(C)(CCc1ccc(-c3ccccn3)s1)O2 (racemic) [Example 65]
c: Cc1c(C)c2c(c(C)c1O)CCC(C)(CCc1ccc(O)c(O)c1)O2 (racemic) [Example 61]
d: CCCCc1ccc(C#CC2(C)CCc3c(C)c(O)c(C)c(C)c3O2)s1 (racemic) [Example 31]
e: Cc1ccc2oc(C3(C)CCc4c(C)c(O)c(C)c(C)c4O3)cc2n1 (racemic) [Example 51]
Q: Given 5 compounds, produce a descending ranking by IC50. Quick reminder: the answer is the labels in the order asked.
Ans: d, b, a, c, e
(d: 1000 nM, b: 170 nM, a: 46 nM, c: 15 nM, e: 3 nM)

###

# targetUnderTest: superoxide-dependent, iron-promoted lipid peroxidation of native rat heart cardiac lipid liposomes
# experimentalDetails: Lipid peroxidation inhibition (in vitro testing of antiperoxidative agents, ANTI-OX), hypoxanthine-xanthine oxidase-Fe3+.ADP, rat cardiac liposomes, MDA equivalents
# experimentalSetup: 60 min, 37° C., screened at 1.0 μM, IC50 determined if inhibition ≥ 50%, read-out: ANTI-OX IC-50
measuredParameter: IC50 (nM)

Please review the entries below; each comes with its answer.
compound="CCCCc1ccc(C#CC2(C)CCc3c(C)c(O)c(C)c(C)c3O2)s1 (racemic)" measuredparameter=IC50 unitinfo=nM quantitativereadout=550
compound="Cc1c(C)c2c(c(C)c1O)CCC(C)(C#Cc1cccnc1)O2 (racemic)" measuredparameter=IC50 unitinfo=nM quantitativereadout=600
compound=Cc1c(C)c2c(c(C)c1O)CC[C@](C)(C#Cc1cccs1)O2 measuredparameter=IC50 unitinfo=nM quantitativereadout=800

1: Cc1c(C)c2c(c(C)c1O)CCC(C)(C#Cc1ccccc1O)O2 (racemic)
2: Cc1c(C)c2c(c(C)c1O)CCC(C)(C#Cc1ccc(OCc3ccccc3)c(O)c1)O2 (racemic)
Q: Given 1 and 2 , report the one with the higher recorded IC50. Answer format: the label of the selected item.
Ans: 1

###

# targetUnderTest: Δ^5 -lipoxygenase from rat basophilic leukemia (RBL-1) cells (Rattus norvegicus, UniProt P12527)
# Construct: endogenous in cells; 113,000×g supernatant (cytosolic fraction)
# Sequence (P12527 1-673): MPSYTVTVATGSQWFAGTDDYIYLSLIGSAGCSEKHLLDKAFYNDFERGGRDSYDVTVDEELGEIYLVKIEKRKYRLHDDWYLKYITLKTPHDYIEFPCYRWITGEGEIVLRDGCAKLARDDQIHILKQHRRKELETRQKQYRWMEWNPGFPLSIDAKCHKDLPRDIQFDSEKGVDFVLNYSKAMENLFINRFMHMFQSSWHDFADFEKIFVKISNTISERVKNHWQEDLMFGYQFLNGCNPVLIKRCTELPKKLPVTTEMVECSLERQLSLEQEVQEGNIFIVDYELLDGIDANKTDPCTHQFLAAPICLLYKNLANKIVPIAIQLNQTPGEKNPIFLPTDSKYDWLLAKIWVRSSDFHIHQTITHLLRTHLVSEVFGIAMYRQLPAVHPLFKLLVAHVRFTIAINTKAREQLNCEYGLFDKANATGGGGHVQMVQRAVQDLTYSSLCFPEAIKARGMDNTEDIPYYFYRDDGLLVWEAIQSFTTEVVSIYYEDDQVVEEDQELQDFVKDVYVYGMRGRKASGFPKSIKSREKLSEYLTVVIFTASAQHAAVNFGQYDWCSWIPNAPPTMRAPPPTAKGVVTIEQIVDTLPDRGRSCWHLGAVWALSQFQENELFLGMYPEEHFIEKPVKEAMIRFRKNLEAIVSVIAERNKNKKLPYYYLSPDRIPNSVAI
# experimentalDetails: In vitro test for Δ^5 -lipoxygenase inhibitors (5-LO), RBL-1 cell enzyme, 5-HETE radioimmunoassay
# experimentalSetup: RBL-1 5-LO; 10 min preincubation; 8.25 μM arachidonic acid, 10 min at 37° C.; 5-HETE formation; read-out: 5-LO IC-50
pIC50: −log10 of the molar value.
measuredParameter: pIC50

P: COc1cc(C=O)cc(C#CC2(C)CCc3c(C)c(O)c(C)c(C)c3O2)c1O (racemic)
Q: Cc1c(C)c2c(c(C)c1O)CCC(C)(C#Cc1ccccc1NC(=O)C(F)(F)F)O2 (racemic)
Q: Sorting by pIC50 in descending order, would P or Q appear first? Use the label to indicate which entry you chose.
Ans: Q
(Q: 8.00, P: 6.89)
